Target: T1, cyno CD137-Fc (cynomolgus monkey; human, limits assumed, biotin-labeled)
T1 construct: whole entry 92 named; also called biotin-labeled cynomolgus monkey CD137 fused to human IgG1 Fc fragment; not shown: human IgG1 Fc fragment
T1 chain: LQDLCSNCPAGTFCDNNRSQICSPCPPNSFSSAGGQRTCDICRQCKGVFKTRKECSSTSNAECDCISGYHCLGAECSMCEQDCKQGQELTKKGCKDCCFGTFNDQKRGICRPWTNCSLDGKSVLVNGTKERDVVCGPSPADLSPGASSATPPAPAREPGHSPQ
Assay: bead ELISA, IgG on biotinylated antigen, luminescence;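 note: biotinylated antigen captured on streptavidin magnetic beads, then incubated with purified IgG at 50 ng/µL for 1 h at room temperature before detection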
Catalogue of log10(RLU) readings, one per entry.
Values reflect log10 of reported RLU (RLU).

If you can, please state the reported log10(RLU) value of DXDU01_3#094 (antibody, V domains shown, Human IgG1; light chain GLS3000 (kappa); also called dBBDu121) VH: QVQLVESGGGLVQPGRSLRLSCAASGFTFSNAWMHWVRQAPGKGLEWVAQIKDKGNAYAAYYAPSVKGRFTISRDDSKNSIYLQMNSLKTEDTAVYYCHYVHYASAAGGLPGFGVDAWGQGTTVTVSS VL: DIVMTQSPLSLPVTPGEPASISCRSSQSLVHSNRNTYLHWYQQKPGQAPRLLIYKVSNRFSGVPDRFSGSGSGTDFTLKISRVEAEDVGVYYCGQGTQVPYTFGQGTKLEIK .
4.28

If you can, please state the reported log10(RLU) value of DXDU01_3#019 (antibody, V domains shown, Human IgG1; light chain GLS3000 (kappa); also called dBBDu125) VH: QVQLVESGGGLVQPGRSLRLSCAASGFTFSIAWMHWVRQAPGKGLEWVAQIKDKVNGYTAYYAESVKGRFTISRDDSKNSIYLQMNSLKTEDTAVYYCRYVHYAAYYDVLGYGGVDAWGQGTTVTVSS VL: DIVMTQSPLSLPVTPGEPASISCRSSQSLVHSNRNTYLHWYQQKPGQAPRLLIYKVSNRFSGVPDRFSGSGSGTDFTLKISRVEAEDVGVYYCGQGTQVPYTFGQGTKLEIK .
3.71

If you can, please state the reported log10(RLU) value of DADU01_3#001 (antibody, V domains shown, Human IgG1; light chain GLS3000 (kappa); also called dBBDu126; dBBDu_126) VH: QVQLVESGGGLVQPGRSLRLSCAASGFTFSIAWMHWVRQAPGKGLEWVAQIKDRVNAYEAYYAPSVKGRFTISRDDSKNSIYLQMNSLKTEDTAVYYCRYVHYASYYDLLGYGGVDAWGQGTTVTVSS VL: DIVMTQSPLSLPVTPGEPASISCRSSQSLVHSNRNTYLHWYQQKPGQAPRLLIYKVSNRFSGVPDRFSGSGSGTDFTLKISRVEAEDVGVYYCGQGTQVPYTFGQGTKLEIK .
3.08

If you can, please state the reported log10(RLU) value of DXDU01_3#051 (antibody, V domains shown, Human IgG1; light chain GLS3000 (kappa); also called dBBDu127) VH: QVQLVESGGGLVQPGRSLRLSCAASGFTFSNAWMHWVRQAPGKGLEWVAQIKDRGQQYNAYYAPSVKGRFTISRDDSKNSIYLQMNSLKTEDTAVYYCHYVHYASASSVLPGYGVDAWGQGTTVTVSS VL: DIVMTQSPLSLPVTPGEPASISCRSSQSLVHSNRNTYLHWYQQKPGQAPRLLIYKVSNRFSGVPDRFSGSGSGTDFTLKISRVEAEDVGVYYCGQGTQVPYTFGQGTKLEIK .
4.04

If you can, please state the reported log10(RLU) value of DXDU01_3#072 (antibody, V domains shown, Human IgG1; light chain GLS3000 (kappa); also called dBBDu122) VH: QVQLVESGGGLVQPGRSLRLSCAASGFTFSNAWMHWVRQAPGKGLEWVAQIKDRSQLYAAYYAPSVKGRFTISRDDSKNSIYLQMNSLKTEDTAVYYCHYVHYASASTVLGAYGVDAWGQGTTVTVSS VL: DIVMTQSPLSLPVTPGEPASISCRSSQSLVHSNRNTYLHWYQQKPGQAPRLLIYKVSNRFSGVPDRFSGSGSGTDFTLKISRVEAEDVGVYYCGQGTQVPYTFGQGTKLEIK .
3.53

If you can, please state the reported log10(RLU) value of DADU01_3#002 (antibody, V domains shown, Human IgG1; light chain GLS3000 (kappa); also called dBBDu124) VH: QVQLVESGGGLVQPGRSLRLSCAASGFTFSNAWMHWVRQAPGKGLEWVAQIKDKQNLYNAYYAESVKGRFTISRDDSKNSIYLQMNSLKTEDTAVYYCHYVHYASASTVLPAFGVDAWGQGTTVTVSS VL: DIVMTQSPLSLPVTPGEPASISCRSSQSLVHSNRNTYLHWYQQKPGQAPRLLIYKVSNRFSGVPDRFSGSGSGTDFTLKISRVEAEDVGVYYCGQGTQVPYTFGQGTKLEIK .
4.03

meta.source: patent US20210388087A1
